Each recorded value in this set is attributed to patent US5362744A.

# Tested on: total cholesterol
# ASSAY COMMENT: in vivo screen designated APCC (total cholesterol in rats on PCC diet)
# Design: species or system male Sprague-Dawley rats
# CONDITION: Rattus norvegicus, PCC diet overnight, read-out: APCC (%ΔTC): percent change in total cholesterol between control and drug-treated animals
Note to self: change in vivo at 30 mg/kg under -40% means yes, ties and anything higher get no.

| COMPOUND | CLASS LABEL |
| --- | --- |
| CC(C)c1cccc(C(C)C)c1NC(=O)N(c1ccccc1)c1nnn(CCCCCCCCO)n1 [Example 13] | no |
| CCCCCCCCCCCCn1nnc(CN(Cc2ccccc2)C(=O)Nc2c(OC)cc(OC)cc2OC)n1 [Example 9] | yes |
| COc1cc(OC)c(NC(=O)N(c2ccccc2)c2nnn(CCCCCCCCOC3CCCCO3)n2)c(OC)c1 (racemic) [Example 11] | yes |
| CCCCCCCCCCCCn1nnc(N(C(=O)Nc2ccc(F)cc2F)c2ccccc2)n1 [Example 3] | yes |
| COc1cc(OC)c(NC(=O)N(c2ccccc2)c2nnn(CCCCCCCC=O)n2)c(OC)c1 [Example 16] | no |
| CC(C)c1cccc(C(C)C)c1NC(=O)N(c1ccccc1)c1nnn(CCCCCCCC=O)n1 [Example 15] | no |
| COc1cc(OC)c(NC(=O)N(c2ccccc2)c2nnn(CCCCCCCCO)n2)c(OC)c1 [Example 14] | no |
| CCCCCCCCCCCCn1nnc(N(C(=O)Nc2c(OC)cc(OC)cc2OC)C2CCCCC2)n1 [Example 5] | yes |
| O=C(Nc1ccc(F)cc1F)N(c1ccccc1)c1nnn(CCCCCCCCOC2CCCCO2)n1 (racemic) [Example 12] | no |
| CCCCCn1nnc(N(C(=O)Nc2c(OC)cc(OC)cc2OC)c2ccccc2)n1 [Example 8] | yes |
| CC(C)c1cccc(C(C)C)c1NC(=O)N(c1ccccc1)c1nnn(CCCCCCCCOC2CCCCO2)n1 (racemic) [Example 10] | yes |
